Source listed as patent US12649723B2.

target: CYP2D6 (Homo sapiens, UniProt P10635); construct: human liver microsomes (0.25 mg/mL); from tissue; host or cells: human liver microsomes; test: Inhibitory effect on CYP coenzyme activity, human liver microsomes; type: in vitro ADME; details: compound 10 μM; human liver microsomes 0.25 mg/mL; substrate dextromethorphan; 15 minutes
Sequence (P10635 whole entry): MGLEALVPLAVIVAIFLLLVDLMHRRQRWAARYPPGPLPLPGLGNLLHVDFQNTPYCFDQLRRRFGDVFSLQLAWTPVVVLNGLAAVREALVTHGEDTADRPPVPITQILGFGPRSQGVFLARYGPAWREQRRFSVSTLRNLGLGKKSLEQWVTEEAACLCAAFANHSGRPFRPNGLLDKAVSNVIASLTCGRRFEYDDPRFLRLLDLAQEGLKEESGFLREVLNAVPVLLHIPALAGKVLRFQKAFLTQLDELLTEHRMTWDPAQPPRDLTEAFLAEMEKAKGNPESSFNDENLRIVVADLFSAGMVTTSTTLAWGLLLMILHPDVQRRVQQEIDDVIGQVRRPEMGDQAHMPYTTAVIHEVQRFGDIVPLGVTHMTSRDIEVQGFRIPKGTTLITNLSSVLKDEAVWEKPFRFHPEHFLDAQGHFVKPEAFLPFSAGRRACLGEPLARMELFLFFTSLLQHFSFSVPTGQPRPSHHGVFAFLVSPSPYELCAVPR
Recorded CYP2D6 for the following compounds

// worked examples, CYP2D6 included
Cc1cc(NN=C(C#N)C#N)ccc1OCc1nc2ccccc2[nH]1 :: >100
N#CC(C#N)=NNc1ccc(OCc2cn[nH]c2)cc1 :: >100

Identify the measured CYP2D6 of Cc1cc(NN=C(C#N)C#N)ccc1OCc1cnccn1 for CYP2D6 (Homo sapiens, UniProt P10635). >100
